For each entry below, report its selectivity ratio value.
Assay: Therapeutic index, ratio of CC50 for human MT4 cells to EC50 for HIV-1 NL4-3 infected in human MT4 cells
Assay type: toxicity, cell-based
Details: read-out: Ratio CC50/EC50

# annotated cases, reported selectivity ratio shown
COC(c1nc(NC(C)C)[nH]c(=O)c1C)c1c(F)cccc1F (configuration not stated) :: > 5810
CCCN(C)c1nc(C(OC)c2c(F)cccc2F)c(C)c(=O)[nH]1 (configuration not stated) :: > 15600
CCC(C)Sc1nc(C(C)c2c(F)cccc2Cl)c(C)c(=O)[nH]1 (configuration not stated) :: > 5000
CCCN(C)c1nc(C(OC)c2c(Cl)cccc2Cl)c(C)c(=O)[nH]1 (configuration not stated) :: 70800 to 78700
Cc1c(C(C)c2c(F)cccc2Cl)nc(SC2CCCC2)[nH]c1=O (configuration not stated) :: > 500000

Items follow; give selectivity ratio for each.
1. CCC(c1nc(SC2CCCC2)[nH]c(=O)c1C)c1c(F)cccc1Cl (configuration not stated)
2. Cc1c(C(C)c2c(F)cccc2F)nc(SC(C)C)[nH]c1=O (configuration not stated)

(A)
> 5
> 3000
